- Tested on: A-375
- method notes: cells
- Type: cell-based
- experimental setup: Homo sapiens, A-375, 72 h
pIC50: −log10 of the molar value.

{"smiles string": "CN[C@@H]1C[C@H]2O[C@@](C)([C@@H]1OC)n1c3ccccc3c3c4c(c5c6ccccc6n2c5c31)C(=O)NC4", "target system": "A-375", "pIC50": 7.74}

* * *

- Tested on: SK-OV-3
- method notes: cells
- Type: cell-based
- experimental setup: Homo sapiens, SK-OV-3, 72 h
pIC50: −log10 of the molar value.
observation type: pIC50

{"smiles string": "CN[C@@H]1C[C@H]2O[C@@](C)([C@@H]1OC)n1c3ccccc3c3c4c(c5c6ccccc6n2c5c31)C(=O)NC4", "observation type": "pIC50", "numeric value": 7.55}

* * *

- System: SK-HEP-1
- method notes: cells
- Format: cell-based
- experimental setup: Homo sapiens, SK-HEP1, 72 h
pIC50: −log10 of the molar value.
observation type: pIC50

{"compound": "CN[C@@H]1C[C@H]2O[C@@](C)([C@@H]1OC)n1c3ccccc3c3c4c(c5c6ccccc6n2c5c31)C(=O)NC4 [Staurosporine]", "observation type": "pIC50", "numeric value": 7.77}
